tested on: genotype 1a replicon (1a-H77); experiment: 1a stable replicon (luciferase reporter); type: cell-based, HCV; conditions: Hepatitis C virus, Huh-7, luciferase reporter, HuH-7 cells, 5% FBS
Assign EC50 to each entry below.

Problem: Form field: reported EC50 of COc1ccc2c(c1)nc(O[C@@H]1C[C@H]3C(=O)N[C@]4(C(=O)NS(=O)(=O)C5CC5)C[C@H]4/C=C\CCCCC[C@H](NC(=O)c4cc(C)on4)C(=O)N3C1)c1ccc(F)cc12
Result: 0.1 to 0.5 nM

Problem: Form field: reported EC50 of CC1(S(=O)(=O)NC(=O)[C@@]23C[C@H]2/C=C\CCCCC[C@H](NC(=O)c2ccon2)C(=O)N2C[C@H](Oc4nc5cc(F)ccc5c5cc(F)ccc45)C[C@H]2C(=O)N3)CC1
Result: 0.1 to 0.5 nM

Problem: Form field: reported EC50 of CC1(S(=O)(=O)NC(=O)[C@@]23C[C@H]2/C=C\CCCCC[C@H](NC(=O)c2cscn2)C(=O)N2C[C@H](Oc4nc5ccccc5c5cc(F)ccc45)C[C@H]2C(=O)N3)CC1
Result: 0.5 to 1 nM

* * *

test system: genotype 3a NS3 gene in transient replicon; experiment: 3a transient replicon (luciferase reporter); assay type: cell-based, HCV; conditions: Hepatitis C virus, Huh-7, read-out: 3a transient replicon (nM)
assay metric: EC50

Problem: For genotype 3a NS3 gene in transient replicon, provide EC50 of Cc1cc(C(=O)N[C@H]2CCCCC/C=C\[C@@H]3C[C@@]3(C(=O)NS(=O)(=O)C3(C)CC3)NC(=O)[C@@H]3C[C@@H](Oc4nc5cc(OC(F)(F)F)ccc5c5ccccc45)CN3C2=O)no1 please.
Result: > 1 nM

Problem: For genotype 3a NS3 gene in transient replicon, provide EC50 of Cc1cc(C(=O)N[C@H]2CCCCC/C=C\[C@@H]3C[C@@]3(C(=O)NS(=O)(=O)C3CC3)NC(=O)[C@@H]3C[C@@H](Oc4nc5ccccc5c5cc(F)ccc45)CN3C2=O)no1 please.
Result: > 1 nM

Problem: For genotype 3a NS3 gene in transient replicon, provide EC50 of COc1ccc2c(c1)nc(O[C@@H]1C[C@H]3C(=O)N[C@]4(C(=O)NS(=O)(=O)C5CC5)C[C@H]4/C=C\CCCCC[C@H](NC(=O)c4cc(C)on4)C(=O)N3C1)c1ccc(F)cc12 please.
Result: > 1 nM

* * *

tested on: genotype 3a NS3 gene in transient replicon; experiment: 3a transient replicon (luciferase reporter); type: cell-based, HCV; conditions: Hepatitis C virus, Huh-7, read-out: 3a transient replicon (nM)
assay metric: EC50

Problem: Form field: reported EC50 of Cc1cc(C(=O)N[C@H]2CCCCC/C=C\[C@@H]3C[C@@]3(C(=O)NS(=O)(=O)C3CC3)NC(=O)[C@@H]3C[C@@H](Oc4nc5ccccc5c5cccc(F)c45)CN3C2=O)no1
Result: > 1 nM

Problem: Form field: reported EC50 of Cn1ccc(C(=O)N[C@H]2CCCCC/C=C\[C@@H]3C[C@@]3(C(=O)NS(=O)(=O)C3CC3)NC(=O)[C@@H]3C[C@@H](Oc4nc5ccccc5c5cc(OC(F)(F)F)ccc45)CN3C2=O)n1
Result: > 1 nM

Problem: Form field: reported EC50 of CC1(S(=O)(=O)NC(=O)[C@@]23C[C@H]2/C=C\CCCCC[C@H](NC(=O)[C@@H](O)C(F)(F)F)C(=O)N2C[C@H](Oc4nc5cc(F)ccc5c5ccccc45)C[C@H]2C(=O)N3)CC1
Result: > 1 nM

Problem: Form field: reported EC50 of COc1ccc2c(c1)c(O[C@@H]1C[C@H]3C(=O)N[C@]4(C(=O)NS(=O)(=O)C5CC5)C[C@H]4/C=C\CCCCC[C@H](NC(=O)c4cc(C)on4)C(=O)N3C1)nc1cc(OC(F)(F)F)ccc12
Result: 0.5 to 1 nM

Problem: Form field: reported EC50 of Cn1ccc(C(=O)N[C@H]2CCCCC/C=C\[C@@H]3C[C@@]3(C(=O)NS(=O)(=O)C3(C)CC3)NC(=O)[C@@H]3C[C@@H](Oc4nc5ccccc5c5ccc(F)cc45)CN3C2=O)n1
Result: 0.5 to 1 nM

* * *

tested on: genotype 1a replicon (1a-H77); assay: 1a stable replicon (luciferase reporter); assay type: cell-based, HCV; details: Hepatitis C virus, Huh-7, luciferase reporter, HuH-7 cells, 5% FBS
assay metric: EC50

Problem: Form field: reported EC50 of Cc1ccc(C(=O)N[C@H]2CCCCC/C=C\[C@@H]3C[C@@]3(C(=O)NS(=O)(=O)C3(C)CC3)NC(=O)[C@@H]3C[C@@H](Oc4nc5cc(F)ccc5c5ccccc45)CN3C2=O)o1
Result: 0.5 to 1 nM

Problem: Form field: reported EC50 of Cn1ccc(C(=O)N[C@H]2CCCCC/C=C\[C@@H]3C[C@@]3(C(=O)NS(=O)(=O)C3CC3)NC(=O)[C@@H]3C[C@@H](Oc4nc5ccccc5c5cccc(F)c45)CN3C2=O)n1
Result: 0.5 to 1 nM

Problem: Form field: reported EC50 of CC1(S(=O)(=O)NC(=O)[C@@]23C[C@H]2/C=C\CCCCC[C@H](NC(=O)c2ccon2)C(=O)N2C[C@H](Oc4nc5cc(F)ccc5c5ccccc45)C[C@H]2C(=O)N3)CC1
Result: 0.1 to 0.5 nM

Problem: Form field: reported EC50 of Cc1cc(C(=O)N[C@H]2CCCCC/C=C\[C@@H]3C[C@@]3(C(=O)NS(=O)(=O)C3(C)CC3)NC(=O)[C@@H]3C[C@@H](Oc4nc5cc(F)ccc5c5ccccc45)CN3C2=O)no1
Result: 0.1 to 0.5 nM

Problem: Form field: reported EC50 of Cn1ccc(C(=O)N[C@H]2CCCCC/C=C\[C@@H]3C[C@@]3(C(=O)NS(=O)(=O)C3(C)CC3)NC(=O)[C@@H]3C[C@@H](Oc4nc5cc(F)ccc5c5cc(F)ccc45)CN3C2=O)n1
Result: 0.1 to 0.5 nM

* * *

test system: genotype 1a replicon (1a-H77); assay: 1a stable replicon (luciferase reporter); assay type: cell-based, HCV; conditions: Hepatitis C virus, Huh-7, luciferase reporter, HuH-7 cells, 5% FBS
assay metric: EC50

Problem: For genotype 1a replicon (1a-H77), provide EC50 of Cc1cc(C(=O)N[C@H]2CCCCC/C=C\[C@@H]3C[C@@]3(C(=O)NS(=O)(=O)C3(C)CC3)NC(=O)[C@@H]3C[C@@H](Oc4nc5ccccc5c5cc(F)ccc45)CN3C2=O)no1 please.
Result: 500 to 1000 pM

Problem: For genotype 1a replicon (1a-H77), provide EC50 of Cc1cc(C(=O)N[C@H]2CCCCC/C=C\[C@@H]3C[C@@]3(C(=O)NS(=O)(=O)C3CC3)NC(=O)[C@@H]3C[C@@H](Oc4nc5cc(OC(F)(F)F)ccc5c5ccccc45)CN3C2=O)no1 please.
Result: 500 to 1000 pM

Problem: For genotype 1a replicon (1a-H77), provide EC50 of Cn1ccc(C(=O)N[C@H]2CCCCC/C=C\[C@@H]3C[C@@]3(C(=O)NS(=O)(=O)C3(C)CC3)NC(=O)[C@@H]3C[C@@H](Oc4nc5ccccc5c5ccc(F)cc45)CN3C2=O)n1 please.
Result: 100 to 500 pM

* * *

tested on: genotype 3a NS3 gene in transient replicon; test: 3a transient replicon (luciferase reporter); format: cell-based, HCV; conditions: Hepatitis C virus, Huh-7, read-out: 3a transient replicon (nM)
Assign EC50 to each entry below.

Problem: Form field: reported EC50 of Cn1ccc(C(=O)N[C@H]2CCCCC/C=C\[C@@H]3C[C@@]3(C(=O)NS(=O)(=O)C3CC3)NC(=O)[C@@H]3C[C@@H](Oc4nc5cc(F)ccc5c5cc(OC(F)(F)F)ccc45)CN3C2=O)n1
Result: > 1 nM

Problem: Form field: reported EC50 of CC1(S(=O)(=O)NC(=O)[C@@]23C[C@H]2/C=C\CCCCC[C@H](NC(=O)c2cscn2)C(=O)N2C[C@H](Oc4nc5ccccc5c5cc(F)ccc45)C[C@H]2C(=O)N3)CC1
Result: > 1 nM

Problem: Form field: reported EC50 of Cc1cc(C(=O)N[C@H]2CCCCC/C=C\[C@@H]3C[C@@]3(C(=O)NS(=O)(=O)C3CC3)NC(=O)[C@@H]3C[C@@H](Oc4nc5ccccc5c5cc(OC(F)(F)F)ccc45)CN3C2=O)no1
Result: > 1 nM

Problem: Form field: reported EC50 of CC1(S(=O)(=O)NC(=O)[C@@]23C[C@H]2/C=C\CCCCC[C@H](NC(=O)[C@H](O)C(F)(F)F)C(=O)N2C[C@H](Oc4nc5cc(OC(F)(F)F)ccc5c5ccccc45)C[C@H]2C(=O)N3)CC1
Result: 0.5 to 1 nM

Problem: Form field: reported EC50 of Cc1ccc(C(=O)N[C@H]2CCCCC/C=C\[C@@H]3C[C@@]3(C(=O)NS(=O)(=O)C3(C)CC3)NC(=O)[C@@H]3C[C@@H](Oc4nc5ccccc5c5cc(F)ccc45)CN3C2=O)o1
Result: 0.1 to 0.5 nM

Recorded values, source patent US8951964B2.
